IC50 values by entry
- System Name: Phosphodiesterase 1 (Homo sapiens, UniProt P54750+Q01064+Q14123)
- Test Protocol: Inhibition of Phosphodiesterase 1
- Assay type: protein assay, Cavia porcellus
Field format: number, assumed µM, no unit text.

These recorded examples may help you get a feel for the data.
Compound	Unit Of Measure	IC50
COc1cc2c3c(n1)C(c1ccccc1)=N[C@@H](NC(=O)c1cccnc1)C(=O)N3CC2	µM	14
COc1cc2c3c(n1)C(c1ccccc1)=NC(NC(=O)c1cccnc1)C(=O)N3CC2 (stereo in doubt)	µM	5.8
COc1cc2c3c(c1)C(c1ccccc1)=NCC(=O)N3CC2	µM	52
COc1cc2c3c(n1)C(c1ccccc1)=NC(NC(=O)c1cccnc1)C(=O)N3CC2 (single isomer, unassigned)	µM	28

Note: attention shifts to another entry.
Q. Return reported IC50; argument: COc1cc2c3c(c1)C(c1ccccc1)=N[C@@H](NC(=O)c1ccncc1)C(=O)N3CC2
A. 16

From: ChEMBL document CHEMBL1147448
